target_or_system: hepatitis C virus RNA dependant polymerase (NS5B) (Hepatitis C virus genotype 1b, UniProt P26663)
Sequence (P26663 2420-3010): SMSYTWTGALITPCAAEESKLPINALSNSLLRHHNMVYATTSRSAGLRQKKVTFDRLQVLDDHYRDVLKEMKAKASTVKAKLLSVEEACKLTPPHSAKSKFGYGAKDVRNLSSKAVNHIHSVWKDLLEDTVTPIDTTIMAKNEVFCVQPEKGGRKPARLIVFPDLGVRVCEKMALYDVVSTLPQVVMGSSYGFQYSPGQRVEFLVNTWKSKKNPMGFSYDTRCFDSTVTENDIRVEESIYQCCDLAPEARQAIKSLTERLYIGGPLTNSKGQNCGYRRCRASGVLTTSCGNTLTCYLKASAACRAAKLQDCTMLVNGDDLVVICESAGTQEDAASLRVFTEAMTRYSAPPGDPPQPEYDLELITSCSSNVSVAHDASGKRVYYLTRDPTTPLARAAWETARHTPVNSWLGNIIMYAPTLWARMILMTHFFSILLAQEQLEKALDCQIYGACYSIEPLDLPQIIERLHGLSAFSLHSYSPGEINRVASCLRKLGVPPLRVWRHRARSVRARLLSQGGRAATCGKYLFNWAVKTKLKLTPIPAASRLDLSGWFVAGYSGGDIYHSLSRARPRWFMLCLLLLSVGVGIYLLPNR
test: Inhibition of NS5B RNA dependent RNA polymerase activity
Format: biochemical
stated_conditions: Table 1; HCV NS5B polymerase
Catalogue of IC50 readings, one per entry.

>>> observed("O=C(Cn1c(-c2ccoc2)c(C2CCCCC2)c2ccc(C(=O)O)cc21)NNC(=O)c1ccncc1")
"< 0.2 µM"
>>> observed("O=C(O)c1ccc2c(C3CCCCC3)c(-c3cc4ccccc4s3)n(CC(=O)N3CCOCC3)c2c1")
"0.2 to 1 µM"
>>> observed("O=C(O)/C=C/c1ccc(NC(=O)C2(NC(=O)Cn3c(-c4ccoc4)c(C4CCCCC4)c4ccc(C(=O)O)cc43)CCNCC2)cc1")
"< 0.2 µM"

In: State, in one line, measured IC50 of CN1CCN(C(=O)Cn2c(-c3ccc(Br)cn3)c(C3CCCCC3)c3ccc(C(=O)O)cc32)CC1
Out: 0.2 to 1 µM

In: Determine its reported IC50: CN1CCCN(C(=O)Cn2c(-c3ccoc3)c(C3CCCCC3)c3ccc(C(=O)O)cc32)CC1
Out: < 0.2 µM

In: Tell me IC50 reported for O=C(O)c1ccc2c(C3CCCCC3)c(-c3ccc(Br)cn3)n(CC(=O)N3CCC[C@H]3C(=O)O)c2c1
Out: 0.2 to 1 µM

In: Fill in reported IC50 for this entry: Cn1c(C(=O)O)cc2cc(NC(=O)C(C)(C)NC(=O)Cn3c(-c4ccoc4)c(C4CCCCC4)c4ccc(C(=O)O)cc43)ccc21
Out: < 0.2 µM

meta.source: patent US7888363B2
